Tested on: S. enterica typhimurium WT;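 further: active when median AUC fell below 0.1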
Assay: growth AUC normalised to DMSO control (median) (fraction of control); higher = less growth inhibition, active = hit call of the paper
Settings: 20 µM
Where a name gives a salt, the structure may show the parent alone.
In this section, each of the compounds is paired with its reported growth AUC normalised to DMSO control.
Quick one: just the number, no unit, thanks!

Recorded growth AUC normalised to DMSO control, per entry:
C[N+]1(C)CCC(OC(=O)C(O)(c2ccccc2)C2CCCC2)C1 (stereo not given) [Glycopyrrolate bromide]; 1
CN(C/C=C/C#CC(C)(C)C)Cc1cccc2ccccc12; 1.01
Clc1ccc(CSC(Cn2ccnc2)c2ccc(Cl)cc2Cl)cc1 (stereo not given) [Sulconazole nitrate]; 0.997
COc1cc([C@@H]2c3cc4c(cc3[C@@H](O[C@@H]3O[C@@H]5CO[C@@H](C)O[C@H]5[C@H](O)[C@H]3O)[C@H]3COC(=O)[C@H]23)OCO4)cc(OC)c1O [Etoposide]; 1
COc1ccc2c(c1)c(CC(=O)OCC(=O)O)c(C)n2C(=O)c1ccc(Cl)cc1; 0.993
CC1=C(C(=O)O)N2C(=O)[C@@H](NC(=O)[C@H](N)C3=CCC=CC3)[C@H]2SC1 [Cephradine monohydrate]; 0.991

Input line: May I ask what growth AUC normalised to DMSO control has been recorded for `CC[C@H]1OC(=O)[C@H](C)[C@@H](O[C@H]2C[C@@](C)(OC)[C@@H](O)[C@H](C)O2)[C@H](C)[C@@H](O[C@@H]2O[C@H](C)C[C@H](N(C)C)[C@H]2O)[C@](C)(O)C[C@@H](C)[C@@H]2N[C@@H](COCCOC)O[C@H]([C@H]2C)[C@]1(C)O` ?
Output line: 0.862

Input line: Can you check `CCc1oc2ccccc2c1C(=O)c1cc(Br)c(O)c(Br)c1` next?
Output line: 1

Input line: Can you check C[C@@H](NCCCc1cccc(C(F)(F)F)c1)c1cccc2ccccc12 [Cinacalcet hydrochloride] next?
Output line: 1.01

Input line: Can you check `COc1ccc(C(=O)c2ccccc2)c(O)c1` next?
Output line: 1

Input line: Can you check CC(C)c1cc2c(cc1S(=O)(=O)O)[C@@]1(C)CCC[C@@](C)(C(=O)O)[C@@H]1CC2 [Ecabet sodium] next?
Output line: 1.01

Input line: Can you check CCCCNc1ccc(C(=O)OCCOCCOCCOCCOCCOCCOCCOCCOCCOC)cc1 [Benzonatate] next?
Output line: 1

Input line: Can you check `Oc1c(Cl)cc(Cl)c(Cl)c1Cc1c(O)c(Cl)cc(Cl)c1Cl` next?
Output line: 0.972

Input line: Can you check `N=C(NCCCCCCNC(=N)NC(=N)Nc1ccc(Cl)cc1)NC(=N)Nc1ccc(Cl)cc1` next?
Output line: 0.942

Input line: Can you check `O=c1oc2ccccc2c(O)c1Cc1c(O)c2ccccc2oc1=O` next?
Output line: 1
